Measured Ki accompanies every entry in the list below.
Experiment notes: Inhibition of class I FBA
Design: species or system Homo sapiens

# Molecule, Ki
rows = [
    ("O=C(CC(O)P(=O)(O)O)NO (stereo unspecified)", "180 µM"),
    ("N/C(COP(=O)(O)O)=N/O", "> 1000 µM"),
    ("NC(CC(=O)NO)P(=O)(O)O (stereo unspecified)", "9000 µM"),
    ("NNC(=O)COP(=O)(O)O", "370 µM"),
    ("O=C(CCP(=O)(O)O)NO", "> 500 µM"),
    ("O=C(COP(=O)(O)O)NO [PHOSPHOGLYCOLOHYDROXAMATE]", "1 µM"),
]

----------
Organism: Oryctolagus cuniculus
Experiment notes: Inhibition of rabbit muscle NADH-dependent cytosolic glycerophosphate dehydrogenase

# Compound, Relation, Ki, µM
records = [
    ("O=C(COP(=O)(O)O)NO [PHOSPHOGLYCOLOHYDROXAMATE]", "=", 10),
    ("NNC(=O)COP(=O)(O)O", ">", 500),
    ("N/C(COP(=O)(O)O)=N/O", "=", 100),
    ("O=C(CCP(=O)(O)O)NO", "=", 6),
    ("NC(CC(=O)NO)P(=O)(O)O (stereo unspecified)", ">", 500),
    ("O=C(CC(O)P(=O)(O)O)NO (stereo unspecified)", "=", 40),
]

----------
Experiment notes: Inhibition of class II FBA

# Compound, Ki / µM
measured = [
    ("NNC(=O)COP(=O)(O)O", 0.34),
    ("O=C(COP(=O)(O)O)NO [PHOSPHOGLYCOLOHYDROXAMATE]", 0.01),
    ("O=C(CC(O)P(=O)(O)O)NO (stereo unspecified)", 418),
    ("O=C(CCP(=O)(O)O)NO", 145),
    ("NC(CC(=O)NO)P(=O)(O)O (stereo unspecified)", 3000),
    ("N/C(COP(=O)(O)O)=N/O", 2.3),
]
